FYI, the data here is from patent EP4768499A1.

Listed below: Caco2 Papp (10^-6 cm/sec) values for each entry.
# Tested on: Caco-2 cells
# experimentNotes: Membrane permeability test using Caco-2 cells with preincubation
# Format: in vitro ADME
# condition: Caco-2 cells, preincubation 20 to 24 hours; apical FaSSIF/HBSS 1% DMSO pH 6.0, basal HBSS 4% BSA pH 7.4; basal sample at 180 minutes
Starred links: 1 amine or outer side, 2 acyl side, 3 side chain; linkers in the order of their positions; H or OH if unused. Positions of bridges follow the written chain, without caps; N, C: chain ends. Non-standard residues stand in square brackets, D forms with d. Residues, ends and D or L forms follow the SMILES beside them. *: point of attachment. NMeF = CN[C@@H](Cc1ccccc1)C(=O)O; NMeGABA = CN(CCCC(=O)[*:2])[*:1]; NMeI = CC[C@H](C)[C@H](NC)C(=O)O; NMeT = CN[C@H](C(=O)O)[C@@H](C)O; hPhe = N[C@@H](CCc1ccccc1)C(=O)O; NMeD = CN[C@@H](CC(=O)O)C(=O)O; NMeL = CN[C@@H](CC(C)C)C(=O)O; dNMeV = CN[C@@H](C(=O)O)C(C)C; NMeV = CN[C@H](C(=O)O)C(C)C; d(β3hA) = C[C@@H](N)CC(=O)O; NMeAbu = CC[C@H](NC)C(=O)O; NMeA = CN[C@@H](C)C(=O)O; Piperidide = C1CCN(*)CC1; Abu = CC[C@H](N)C(=O)O; Sar = CNCC(=O)O; tBu = CC(C)(C)*
measuredMetric: Caco2 Papp (10^-6 cm/sec)

- compound: "CC[C@@H]1NC(=O)[C@H](CC(C)C)N(C)C(=O)[C@H]([C@@H](C)O)NC(=O)[C@H](C(C)C)N(C)C(=O)[C@H](Cc2ccccc2)N(C)C(=O)[C@@H](C(C)C)NC(=O)C[C@@H](C(=O)N2CCCCC2)N(C)C(=O)CN(C)C(=O)[C@H](Cc2ccccc2)N(C)C(=O)[C@H](C)N(C)C(=O)[C@H](COC(C)(C)C)NC(=O)[C@H](CC(C)C)N(C)C(=O)CN(C)C1=O [pd162] ([dV][NMeF][NMeV]T[NMeL][Abu][Sar][NMeL]S(tBu)[NMeA][NMeF][Sar][NMeD]-Piperidide; lactam N-13)"
  measuredMetric: "Caco2 Papp (10^-6 cm/sec)"
  observedResult: "0.51 10^-6 cm/sec"
- compound: "CC[C@H]1C(=O)N(C)CC(=O)N[C@@H]([C@@H](C)O)C(=O)N(C)[C@@H](CC(C)C)C(=O)N[C@@H](CC(C)C)C(=O)N(C)[C@@H](Cc2ccccc2)C(=O)N(C)[C@@H](C(C)C)C(=O)N2CCC[C@H]2C(=O)N(C)[C@@H](C)C(=O)N(C)[C@@H](C(C)C)C(=O)N[C@H](C(=O)N2CCCCC2)CC(=O)N(C)[C@@H](CC(C)C)C(=O)N(C)[C@@H](Cc2ccccc2)C(=O)N1C [pd126] ([NMeL][NMeF][NMeAbu][Sar]T[NMeL]L[NMeF][NMeV]P[NMeA][NMeV]D-Piperidide; lactam N-13)"
  measuredMetric: "Caco2 Papp (10^-6 cm/sec)"
  observedResult: "0.88 10^-6 cm/sec"
- compound: "CC(C)C[C@@H]1NC(=O)[C@H](C(C)C)N(C)C(=O)[C@H](Cc2ccccc2)N(C)C(=O)[C@H](CC(C)C)NC(=O)[C@H](CC(C)C)N(C)C(=O)[C@H](C)N(C)C(=O)[C@H]([C@@H](C)O)NC(=O)[C@H](CC(C)C)N(C)C(=O)[C@H](C(C)C)N(C)C(=O)[C@H](CC(C)C)NC(=O)[C@H](Cc2ccccc2)N(C)C(=O)[C@@H](C(C)C)N(C)C(=O)C[C@@H](C(=O)N2CCCCC2)NC1=O [pd108] ([dNMeV][NMeF]L[NMeV][NMeL]T[NMeA][NMeL]L[NMeF][NMeV]LD-Piperidide; lactam N-13)"
  measuredMetric: "Caco2 Papp (10^-6 cm/sec)"
  observedResult: "0.03 10^-6 cm/sec"
- compound: "CC[C@H](C)[C@@H]1NC(=O)[C@H](C)N(C)C(=O)CCCN(C)C(=O)C[C@@H](C)NC(=O)[C@H](C(C)C)N(C)C(=O)[C@H](CCc2ccccc2)NC(=O)[C@H](C)N(C)C(=O)[C@H]([C@@H](C)O)N(C)C(=O)[C@H](CC(C)C)N(C)C(=O)[C@H](C(C)C)NC(=O)[C@H](Cc2ccccc2)N(C)C(=O)[C@H](C)N(C)C(=O)[C@H](C(C)C)N(C)C1=O [pd137] (cyclo(I[NMeV][NMeA][NMeF]V[NMeL][NMeT][NMeA][hPhe][NMeV][d(β3hA)][NMeGABA][NMeA]))"
  measuredMetric: "Caco2 Papp (10^-6 cm/sec)"
  observedResult: "0.55 10^-6 cm/sec"
- compound: "CC[C@@H]1NC(=O)[C@H]([C@@H](C)O)N(C)C(=O)[C@H](CC(C)C)N(C)C(=O)[C@H]([C@@H](C)CC)NC(=O)[C@H](Cc2ccccc2)N(C)C(=O)CN(C)C(=O)C[C@@H](C(=O)N2CCCCC2)NC(=O)[C@H](C(C)C)N(C)C(=O)[C@H](CC)NC(=O)[C@H](COC(C)(C)C)NC(=O)[C@H](C)N(C)C(=O)[C@H](CC)NC(=O)[C@H](CC(C)C)N(C)C(=O)[C@H](CCc2ccccc2)NC1=O [pd028] ([Sar][NMeF]I[NMeL][NMeT][Abu][hPhe][NMeL][Abu][NMeA]S(tBu)[Abu][NMeV]D-Piperidide; lactam N-14)"
  measuredMetric: "Caco2 Papp (10^-6 cm/sec)"
  observedResult: "0.03 10^-6 cm/sec"
- compound: "CC(C)C[C@H]1C(=O)N2CCC[C@H]2C(=O)N(C)[C@@H](Cc2ccccc2)C(=O)N[C@@H](C(C)C)C(=O)N(C)[C@@H](C)C(=O)N(C)[C@@H](C(C)C)C(=O)N[C@H](C(=O)N2CCCCC2)CC(=O)N[C@H](C(C)C)C(=O)N(C)[C@@H]([C@@H](C)O)C(=O)N(C)[C@@H](CC(C)C)C(=O)N(C)[C@@H](C(C)C)C(=O)N(C)[C@@H](CC(C)C)C(=O)N[C@@H](CCc2ccccc2)C(=O)N(C)CC(=O)N1C [pd047] ([dV][NMeT][NMeL][NMeV][NMeL][hPhe][Sar][NMeL]P[NMeF]V[NMeA][NMeV]D-Piperidide; lactam N-14)"
  measuredMetric: "Caco2 Papp (10^-6 cm/sec)"
  observedResult: "0.16 10^-6 cm/sec"
- compound: "CC[C@H](C)[C@@H]1NC(=O)[C@H](Cc2ccccc2)N(C)C(=O)CN(C)C(=O)C[C@@H](C(=O)N2CCCCC2)NC(=O)[C@H]([C@@H](C)CC)N(C)C(=O)[C@H](COC(C)(C)C)NC(=O)[C@@H]2CCCN2C(=O)[C@H](CCc2ccccc2)NC(=O)[C@H](CC)N(C)C(=O)[C@H](CC(C)C)NC(=O)[C@H](CC(C)C)N(C)C(=O)[C@H]([C@@H](C)O)N(C)C(=O)[C@H](CC(C)C)N(C)C1=O [pd114] ([Sar][NMeF]I[NMeL][NMeT][NMeL]L[NMeAbu][hPhe]PS(tBu)[NMeI]D-Piperidide; lactam N-13)"
  measuredMetric: "Caco2 Papp (10^-6 cm/sec)"
  observedResult: "0.16 10^-6 cm/sec"
- compound: "CC[C@H](C)[C@@H]1NC(=O)[C@@H]2CCCN2C(=O)[C@H](C(C)C)N(C)C(=O)[C@H](CC(C)C)N(C)C(=O)C[C@@H](C(=O)N2CCCCC2)N(C)C(=O)[C@H](CC(C)C)NC(=O)[C@H](CC(C)C)N(C)C(=O)[C@H](C)NC(=O)[C@@H]2CCCN2C(=O)[C@H]([C@@H](C)O)NC(=O)[C@H](CC(C)C)N(C)C(=O)CN(C)C(=O)[C@H](Cc2ccccc2)N(C)C1=O [pd164] ([NMeL][NMeV]PI[NMeF][Sar][NMeL]TPA[NMeL]L[NMeD]-Piperidide; lactam N-13)"
  measuredMetric: "Caco2 Papp (10^-6 cm/sec)"
  observedResult: "0.06 10^-6 cm/sec"

###

# experimentNotes: Metabolic stability test: liver microsomal stability assay
# Type: in vitro ADME, mouse
# condition: mouse liver microsomes 0.5 mg protein/mL, compound 1 µM, absence of NADPH
Positions of bridges follow the written chain, without caps; N, C: chain ends. Non-standard residues stand in square brackets, D forms with d. Residues, ends and D or L forms follow the SMILES beside them. *: point of attachment. NMeF = CN[C@@H](Cc1ccccc1)C(=O)O; NMeD = CN[C@@H](CC(=O)O)C(=O)O; NMeL = CN[C@@H](CC(C)C)C(=O)O; NMeV = CN[C@H](C(=O)O)C(C)C; NMeA = CN[C@@H](C)C(=O)O; Piperidide = C1CCN(*)CC1; Sar = CNCC(=O)O; tBu = CC(C)(C)*

- molecule: "CC(C)C[C@@H]1NC(=O)[C@H](CC(C)C)N(C)C(=O)[C@H]([C@@H](C)O)NC(=O)[C@H](C(C)C)N(C)C(=O)[C@H](Cc2ccccc2)N(C)C(=O)[C@@H](C(C)C)NC(=O)C[C@@H](C(=O)N2CCCCC2)N(C)C(=O)[C@H](C)N(C)C(=O)[C@H](Cc2ccccc2)N(C)C(=O)[C@H](C)NC(=O)[C@H](COC(C)(C)C)NC(=O)[C@H](CC(C)C)N(C)C(=O)[C@H](C(C)C)NC(=O)CN(C)C1=O [pd086] ([dV][NMeF][NMeV]T[NMeL]L[Sar]V[NMeL]S(tBu)A[NMeF][NMeA][NMeD]-Piperidide; lactam N-14)"
  Mouse Hepatic Microsome CLh,int NADPH(-) [µL/min/mg Protein]: 20.0
